Where do these numbers come from? They come from paper PMC10397247.

Target: T1, 4H3664-AA
T1 chain: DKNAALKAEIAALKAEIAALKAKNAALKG
Experiment: two-hybrid library CCmax;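 also: natural log of median RNA to DNA barcode read ratio; higher means stronger binding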
Details: mean of both orientations
measurement.type: interaction score
# answer = number (no unit)

// worked examples, interaction score included
DKIAALKAEIAALEAKIAALKAKNAALKG [4H2608-AA] ... -0.787
DKIAALEAKNAALKAENAALEAEIAALEG [4H2513-AA] ... -1.85
DKNAALKAEIAALEAKIAALKAEIAALEG [4H3625-AA] ... -0.0768

Please turn your attention to the following entry.
Please report the recorded interaction score for DEIAALKAKNAALKAKNAALKAEIAALEG [4H1017-AA] .
-1.53
